# Test system: WI-38 cells
# Protocol Description: MTT assay, toxicity in non-cancerous lung fibroblast WI-38 cells
# Format: cell-based, human
# Test Context: WI38 cells, 48 h post treatment, read-out: IC50 for inhibiting the cell proliferation
Readout Type: IC50 (µM)

> print(dat)
              smiles.record  readout.type  measurement.units  numeric.readout
1  O=C(O)CC[Se][Se]CCC(=O)O          IC50                 µM             1000

====

# System: H3122 cells
# Protocol Description: MTT assay, anti-proliferative effect in H3122 cells
# Type: cell-based, human
# Test Context: 48 h treatment, read-out: IC50 to inhibit cell proliferation
Readout Type: IC50 (µM)

> print(dat)
              smiles.record  experimental.system  numeric.readout
1  O=C(O)CC[Se][Se]CCC(=O)O          H3122 cells             46.5

====

# System: WI-26 VA4 cells
# Protocol Description: MTT assay, toxicity in non-cancerous lung fibroblast WI-26 VA4 cells
# Assay type: cell-based, human
# Test Context: 48 h post treatment, read-out: IC50 for inhibiting the cell proliferation
pIC50: −log10 of the molar value.
Readout Type: pIC50

> print(dat)
              smiles.record  numeric.readout
1  O=C(O)CC[Se][Se]CCC(=O)O             3.26

====

# Test system: H3122 cells
# Protocol Description: MTT assay, anti-proliferative effect in H3122 cells
# Assay type: cell-based, human
# Test Context: Homo sapiens, NCI-H3122, 48 h treatment, read-out: IC50 to inhibit cell proliferation
pIC50: −log10 of the molar value.
Readout Type: pIC50

> print(dat)
              smiles.record  numeric.readout
1  O=C(O)CC[Se][Se]CCC(=O)O             4.67

====

# Test system: WI-26 VA4 cells
# Protocol Description: MTT assay, toxicity in non-cancerous lung fibroblast WI-26 VA4 cells
# Type: cell-based, human
# Test Context: Homo sapiens, WI26VA4, 48 h post treatment, read-out: IC50 for inhibiting the cell proliferation
Readout Type: IC50 (µM)

> print(dat)
              smiles.record  numeric.readout
1  O=C(O)CC[Se][Se]CCC(=O)O              151

====

# Tested on: H1975 cells
# Protocol Description: MTT assay, anti-proliferative effect in H1975 cells
# Assay type: cell-based, human
# Test Context: 48 h treatment, read-out: IC50 to inhibit cell proliferation
Readout Type: IC50 (µM)

> print(dat)
              smiles.record  experimental.system  readout.type  numeric.readout
1  O=C(O)CC[Se][Se]CCC(=O)O          H1975 cells          IC50              4.6

====

# Test system: WI-38 cells
# Protocol Description: MTT assay, toxicity in non-cancerous lung fibroblast WI-38 cells
# Type: cell-based, human
# Test Context: Homo sapiens, WI-38, WI38 cells, 48 h post treatment, read-out: IC50 for inhibiting the cell proliferation
pIC50: −log10 of the molar value.
Readout Type: pIC50

> print(dat)
                                   compound  numeric.readout
1  O=C(O)CC[Se][Se]CCC(=O)O [DSePA, 3,3′-diselenodipropionic acid]             3.77
